Organism: Rattus norvegicus
method: Compound was tested in vitro for its ability to enhance the K+-stimulated release of [3H]acetylcholine from rat hippocampal slices preloaded with [3H]-Choline.
Type: functional
assay context: Hippocampus
measure name: pEC50
In simple prose, pEC50 is minus the logarithm base ten of a concentration in moles per litre.

Answered cases to consult:
c1ccc2c(c1)-c1ncccc1C2(Cc1ccncc1)Cc1ccncc1    5.39
O=C1c2ccccc2C(Cc2ccncc2)(Cc2ccncc2)c2ccccc21    6.35
O=C1N(c2ccccc2)c2ccccc2C1(Cc1ccncc1)Cc1ccnc(F)c1 (centres undefined)    5.00
O=C1N(c2ccccc2)c2ccccc2C1(Cc1ccnc(F)c1)Cc1ccnc(F)c1    4.82

input: Which measured pEC50 value corresponds to "O=C1c2ccccc2C(Cc2ccnc(F)c2)(Cc2ccnc(F)c2)c2ccccc21" ?
output: 6.08

input: Find the recorded pEC50 belonging to O=C1N(c2ccccc2)c2ccccc2C1(Cc1ccncc1)Cc1ccncc1 [LINOPIRDINE] and report it.
output: 5.35

input: Entry "O=C1c2ccccc2C(Cc2ccncc2)(Cc2ccnc(F)c2)c2ccccc21" : reported pEC50 = ?
output: 6.39

input: Could you share which pEC50 value was measured for "Fc1cc(CC2(Cc3ccnc(F)c3)c3ccccc3-c3ncccc32)ccn1" ?
output: 5.80

input: What does the record list as pEC50 for Fc1cc(CC2(Cc3ccncc3)c3ccccc3-c3ncccc32)ccn1 (centres undefined) ?
output: 5.97
